Cited source: the nanobody polyreactivity screen of Harvey et al. (2022)

Assay: yeast display, Sf9 membrane polyspecificity reagent, FACS + sequencing; frameworks hold sequencing errors
ASSAY ENDPOINT: polyreactivity (PSR sort gate)

INSERT INTO assay_data (polymer_sequence, result_value) VALUES
  ('QVQLVDSGGGLVQAGGSLRLSCAASGFIFRRYAMGWYRQAPGKERDLVAVIRSSGGSTYYADSVKGRFTISRDNAKNTVYLQMNSLKPEDTAVYYCAARSILGYRSYGYWGEGTQVTVSS', 'high polyreactivity'),
  ('QVQLVESGGGLVQAGGSLRLRCAASGRIFGFYAMGWYRQAPGKERELVAAITSSAGRTRYADSVKGRFTISRDNAKNTVYLQMNSLKPEDTAVYYCAARTVGRKAGFDYWGQGTQVTVSS', 'high polyreactivity'),
  ('QVQLVESGGGLVQAGGSLRLSCAASGSTFGYYTMGWYRQAPGKERELVASISWSGASTHYADSVKGRFTISRDNAKNTVYLPMNRLKPEDTAVYYCAADSYPAYLGFVGFDYWGQGTQVTVSS', 'low polyreactivity'),
  ('QVQLVESGGGLVQAGGSLRLSCAASGSTFTEYAMGWYRQAPGKERELVAAITRSGGGTYYADSVKGRFTISRDNAKNTVYLQINSLKPEDTAVYYCAKDWYRRYIRDYWGQGTQVTVSS', 'high polyreactivity');

Kindly review the next sequence as well.
# sequence QVQLVESVGGLVQAGGSLRLSCAASGRTFYQYALGWYRQAPGKERELVAVINGGGSTNYADSVKGRFTISRDNAKNTVYLQMNSLKPEDTAVYYCNADGRRGRYDYWGQGTQVTVSS ; its polyreactivity (PSR sort gate) = low polyreactivity

* * *

Experiment: yeast display, Sf9 membrane polyspecificity reagent, FACS + sequencing; frameworks hold sequencing errors
ASSAY ENDPOINT: polyreactivity (PSR sort gate)

Consider the following illustrative entries.
INSERT INTO assay_data (polymer_sequence, assay_endpoint, result_value) VALUES
  ('QVQLVESGGGLVQAGGSLRLSCAASGFIFDGYAMGWYRQAPGKERELVAAISSSGGRTHYADSVKGRFTISRDNAKNTVYLQMNSLKPEDTAVYYCAVRFKWQGYNYWGQGTQVTVSS', 'polyreactivity (PSR sort gate)', 'high polyreactivity'),
  ('QVQLVESGGGLVQAGGSLRLSCAASGSIFTINTMGWYRPAPGKERELVAAITGSGGITYYADSVKGRFTISRDYAKNTVYLQLNTLKPEDTAVYYCAADYWWTIPEEPQGLGAVDYWGLGTQVTVSS', 'polyreactivity (PSR sort gate)', 'low polyreactivity'),
  ('QVQLVESGGGLVQAGGSLRLSCAASGSTGLNAMGWYRQAPGKERELVAAITWSGGSTYYADSVKGRFTISRDNAKNTVYLQMNSLKPVDTAVYYCAAQYTWYKSRYGYWGQGTQVTVSS', 'polyreactivity (PSR sort gate)', 'high polyreactivity'),
  ('QVQLVESGGGLVQAGGSLRISCAASGRISVFNVMGWYIQAPGKERELVAAITSGGSTKYADSVKGRFTISRDNAKNTVYLQMNSLKPEDTAVYYCAALYQFHGKIWDGDYWGQGTQVTVSS', 'polyreactivity (PSR sort gate)', 'low polyreactivity'),
  ('QVQLVDSGGGIVQAGGSLRLRCAASGFTFDFYAMGWYRQAPGKERELVADISSSDGSTYADSVKGRFTISRDNAKNTVYLQMNSLNPEDTAVYYCAADYDNQYDFSLDDEYWGQVTQVTVSS', 'polyreactivity (PSR sort gate)', 'low polyreactivity'),
  ('QVQLVESGGGLVQAGGSLRLSCAASGSNFVPYTMGWYRQAPGKERELVASISYSVGTTYYADSVKGRFTISRDNAKNTVYLQMNSLKPEDTAVYYCAADWDESYSYRRYRHYDYWGQGTQVTVSS', 'polyreactivity (PSR sort gate)', 'low polyreactivity'),
  ('QVQLVESGGGLVQAGGSLRLSCAASGRNLQQYVMGWYRQAPGKERELVAAITRGGRTNYADSVKGRFTISRDYAKNTVYLLMNSLKQEDTAVYYCKTRYPSRVVAWLDYWGQGTQVNVSS', 'polyreactivity (PSR sort gate)', 'low polyreactivity'),
  ('QVQLVESGGGLVQAGGSLRLSCAASGRIFSAYAMGWYRQAPGKERELVAAISKRGGRTYYADSVKGRFTISRDNAKNTVYLQMNSLKPEDTAVYYCNKRYHDGHELDYWGQGTQVTVSS', 'polyreactivity (PSR sort gate)', 'high polyreactivity'),
  ('QVQLVESGGGLVQAGGSLRLSCAASGFTFLGYVMGWYRQAPGKEREFVADITESGGRTYYADSVKGRFTISRDNAKNTVYLQMNSLKPEDTAVYYCAAELSYWGYYYSFDYWGQVTQVTVSS', 'polyreactivity (PSR sort gate)', 'low polyreactivity'),
  ('QVQLVESGGGLVQAGGSLRLSCAASGRIFDWNVMGWYRQAPGKERELVAVINDSTGTTYYADSVKGRFTISRDNAKNTVYLQMNSLKPEDTAVYYCSADWSVFTYFYGYDYWGQGTQVTVSS', 'polyreactivity (PSR sort gate)', 'low polyreactivity');

# sequence QVQLVESGGGLVQAGGSLRLSCAASGFIFRYYDMGWYRQAPGKERELVAAISWRGGRTYYADSVKGRFTISRDNAKNTVYLQMNSLKPEDTAVYYCAAGFSLWTYPKPYGEDYWGQGTQVTVSS ; its polyreactivity (PSR sort gate) = high polyreactivity

# sequence HVQLVESGGGLVQAGGSLRLSCAASGSIFDYNAIGWYRQAPGKERELVASSSGDSGSTYYADSVKWRFTISRDYAKNTVYLQMNSLKPEDTAVYYCAAPYVSWDYRYYYWGQGTQVTVSS ; its polyreactivity (PSR sort gate) = low polyreactivity

# sequence QVQLVESGGGLVQAGGSLRLSCAASGLIFGGNAMGWYRQAPGKERELVAAITYRTGSTYYADSVKGRFTISRDNAKNTVYLQMNSLKPEDTAVYYCAAAVSLGYPVAFYYWGQGTQVTVSS ; its polyreactivity (PSR sort gate) = low polyreactivity

# sequence QVQLVESGGGLVQAGGSLRLSCAASGSTFYLNAMGWYRQAPGKERELVAAISRRGGSTYYADSVKGRFTISRDNAKNTVYLEMNSLKPDDTAVYYCNRARVYGYYAPFDYWGQGTQVTVSS ; its polyreactivity (PSR sort gate) = high polyreactivity

# sequence QVQLVESGGGLVQAGGSLRLSCAASGFIIKFYAMGWYRQAPGKERELVATITFSSGTTYYADSVKGRFTISRDNAKNTVYLQMNSLKPEDTAVYYCAASTLPAWPYDGPAGPRYDYWGQGTQVTVSS ; its polyreactivity (PSR sort gate) = low polyreactivity

# sequence QVQLVESGGGLVQAGGSLRLSCAASGITFERNGKGWYRQAPGKEWELVAAIRSGGSTYYADSVKGRFTISRDNAKNTVYLQMNSLKPEDTAVYYCAAVTQGGYTYLGDYWGQGTQVTVSS ; its polyreactivity (PSR sort gate) = low polyreactivity

* * *

Test: yeast display, Sf9 membrane polyspecificity reagent, FACS + sequencing; frameworks hold sequencing errors
ASSAY ENDPOINT: polyreactivity (PSR sort gate)

INSERT INTO assay_data (polymer_sequence, result_value) VALUES
  ('QVQLVESGGGLVQAGGSLRLSCAASGFTFGGNTMGWYRQAPGKERELVAAITQGGSSTYYADSVKGRFTISRDNAKNTVYLQMNSLKPEDTAVYYCNRGSPFGGLRPYDYWGQGTQVTVSS', 'high polyreactivity'),
  ('QVQLVESGGGLVQAGGSLRLSCAASGSNFFVYAMGWYRQAPGKERELVASIRWRGSSTYYADSVKGRFTISRDNAKNPVYLQMNSLKPEDTAVYDCAATSYNGYGYWGQGTQVTVSS', 'high polyreactivity'),
  ('QVQLGESGGGLVQAGGSLRLSCAASGSIFRYYAMGLYRQAPGKERELVAAISGSGGITRYADSVKGRFTISRDNAKNTVYLLMNSLKPEDTAVYYCATRPGTRPAYDYWGQGTQVTVSS', 'high polyreactivity'),
  ('QVQLVESGGGLVQAGGSLRLSCAASGIIFHGNAMGWYRQAPGKERELVAAIRWSGGSTYYADSVKGRFTISRDNAKNSVYLPMNSLKPEDTAVYYCNAGRSWRRTHYDYWGQGTQVTVSS', 'high polyreactivity');

* * *

Assay: yeast display, Sf9 membrane polyspecificity reagent, FACS + sequencing; frameworks hold sequencing errors
ASSAY ENDPOINT: polyreactivity (PSR sort gate)

Consider the following illustrative entries.
INSERT INTO results (polymer_sequence, result_value) VALUES
  ('QVQLVESGGGLVQAGGSLRLSCAASGSTFEYYAMGWYRQAPGKEREFVAAITLSGGRTYYADSVKGRFTISRDNAKNTVYLQMNSLKPEDTAVYYCNVVVTWWLPSEYDYWGQGTQVTVSS', 'high polyreactivity'),
  ('QVQLVESGGGLVQAGGSLRLSCAASGSTFDWYTMGWYRQATGKERELVADITSGGSTYYADSVKGRFTISRDNAKNTVYLQMNSLKPEDTAAYYCNAYLYTWRWAFDYWGQGTQVTVSS', 'high polyreactivity'),
  ('QVQLVESGGGLVQAGGSLRLSCAASGRILPRNAMGWYRQAPGKERELVATIDYSVGSTYYADSVKGRFTISRDNAKNTVYLQMNSLKPEDTAVYYCNAQVLVRPIQGEYGYWGRGTQVTVSS', 'low polyreactivity'),
  ('QFQLVESGGGLVQAGGSLRLSCAASGRTFRGYAMGWYRQATGTERELVAAITWRGGSTYYADSVKGRFTISRDNEKNTVYLQMNSLKPEDTAVYYCNTLVWSYLGGYYSRYDYWGQGTQVTVSS', 'high polyreactivity');

# sequence QVQLVESGGGLVQAGGSLRLSCAASGSTFPVYAMGWYRQAPGKERELVASLSSGAETNYADSVKGRFTISRDNAKNTVYLQLISLTPEDTAVYYCAATVPLRTIRPRSYGYWGQGTQVTVSS ; its polyreactivity (PSR sort gate) = low polyreactivity

# sequence QVQLVESGGGLVHAGGSLRLSCAASGFTFLRYVMGWYRQTPGKERELVAAISYSGGRTYYADSVKGRFTISRDNAKKTVYLQMNSLKPEDTAVYYCAAESFYPAGFRGYWGQGTQVTVSS ; its polyreactivity (PSR sort gate) = high polyreactivity

# sequence QVQLVESGGGLVQAGGSLRLICAASGITFYRYDMGWYRQAPGKERELVAAISTRGGSTYYADSVKGRFTISRDNAKNTVYLQMNSLKPEDTAVYYCAKERVGTSLPFKDYYWGQGTQVTVSS ; its polyreactivity (PSR sort gate) = low polyreactivity

# sequence QVQLVESGGGLVQAGGSLRLSCAASGYTFRGYAMGWSRQAPGKERELVAAISWSGGRTYYADSVKGRFTISRDNAKYTVYLQMNSLKPEDTAVYYCAAPGQHSWGQGTQVTVSS ; its polyreactivity (PSR sort gate) = high polyreactivity

# sequence QVQLVESVGGLVQAGGSLRLSCAASGSIFRRYTMGWYRQAPGKERELFAAISRVGNTNYAHSVKGRFTISRDNAKNTVYLQMNSLKPEATAVYYCAARAIGYRYTPGLNYWGQGTQVTVSS ; its polyreactivity (PSR sort gate) = high polyreactivity

# sequence QVQLVESGGGLVQAGGSLRLRCAASGSTFSSYAMGWYRQAPGKERELVAAISSRGGRTYYADSVKARFTISRDNAKNTVYLQMNRLIPEDTAVYYCAADWGVRDEYYYWGQGTQVSVSS ; its polyreactivity (PSR sort gate) = high polyreactivity

# sequence QFQLVESGGGLVQAGASLRLSCASSLSTFDHNAMGSYRQAPGKESELVAAISSSGGRTYYADSVKGRFTISRDNAKNTVYLQMNSLKPEDTAVYYCAAVVRRAPEFDYSGQGTQVTVSS ; its polyreactivity (PSR sort gate) = high polyreactivity
